# credit: PubChem BioAssay (NCI)

- Test system: COLO 205 colon
- EXPERIMENT: NCI tumour cell line growth inhibition, 48 h
Please provide measured TGI for the entries that follow.

input: Please supply the value of reported TGI for the item Cc1cc(C)c2c(n1)S(=O)(=O)N(CCCN1CCN(c3cccc(C(F)(F)F)c3)CC1)/C(=C(\O)c1ccc(Cl)cc1)C2=O
output: 3.58 µM

input: Return reported TGI. Input compound: CC1=CC(=O)N(n2c(C)n[nH]c2=O)C1=O
output: > 100 µM

input: Identify measured TGI associated with CN(C)S(=O)(=O)Nc1ccccn1
output: > 100 µM

input: Report TGI, nothing else, for this compound: CCN(CCCN(CC)C(=O)N[C@@H](Cc1ccccc1)C(=O)NC)C(=O)N[C@@H](Cc1ccccc1)C(=O)NC
output: > 100 µM

input: Return TGI for the following compound: C(=Nc1ccc(-c2nc3ccccc3s2)cc1)c1ccco1
output: > 100 µM

input: Answer with the recorded TGI for the compound listed here: C/C(=N/NC(=S)Nc1cccc(C)c1)c1ccccn1
output: 1.34 µM

input: Output TGI of O=C(O)c1cc(S(=O)(=O)N=NC=C2c3ccccc3N(O)c3ccccc32)ccc1O
output: 37.6 µM

input: # return recorded TGI for entry COc1nc2c(cc1S(=O)(=O)c1ccccc1)CCc1c-2cnn1-c1ccccc1Cl
output: > 100 µM

input: Write down TGI measured for item O=C1/C(=C/c2ccccc2)CN(C(=O)Oc2ccc(Cl)cc2)C/C1=C\c1ccccc1
output: 9.53 µM

input: Give TGI for CC(=O)/C(=C/n1c(=S)sc2ccccc21)C(=O)Nc1ccccc1C
output: > 100 µM

input: Look up and state reported TGI for COc1ccc(-n2cc(-c3ccc(OC)c(OC)c3)[nH]c2=S)cc1Cl
output: > 100 µM

input: Identify measured TGI corresponding to COc1cc2c(cc1OC)C1C=NC(C(=O)O)(C2)c2ccccc21 (stereo unspecified)
output: > 100 µM

input: Using the record for CN(C)CCNc1nc2ccccc2c2[nH]c3ccccc3c12 , state its measured TGI.
output: 1.09 µM

input: Provide measured TGI value, entry: C[C@@H]1Cc2c([nH]c3ccccc23)[C@@H](c2c(F)cc(/C=C/C(=O)O)cc2F)N1CC(C)(C)F
output: 39.8 µM

input: Input Cc1nc2nnc(C)n2c2c1C(=O)Nc1ccccc1N2 , output reported TGI.
output: > 100 µM

input: Given Cn1cc(C2=C(c3ccc(OC[C@@H](O)CO)cc3)C(=O)NC2=O)c2ccccc21 , respond with its TGI.
output: > 25 µM

input: Look up TGI of CN=C1NC(=O)/C(=C/c2ccc3ncccc3c2)S1 and report it.
output: > 25 µM

input: Give the value of TGI reported for the following: CC1(C)N=C(N)N=C(N)N1c1ccc(CCCCc2ccc(S(=O)(=O)F)cc2Cl)c(Cl)c1
output: 78 µM

input: Quickly give me recorded TGI for CN1CN(c2ccccc2)C2(CCN(CCCC3(c4cccs4)OCCO3)CC2)C1=O
output: > 100 µM

input: For the compound O=C(O)Cc1ccc2nc(COC(=O)c3ccccc3)sc2c1 , report TGI.
output: > 100 µM

input: Give TGI for the following compound: COc1cc2c(c(O)c1C)C(=O)C(Cl)=CC2=O
output: 4.96 µM
